# normalized growth listing for each entry below
Method notes: chemical genetic growth profiling, strain panel (AID 1159580);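 note: tested at 20 µM; growth read once vehicle control cultures reached saturation at 30 °C; 1 = growth at the plate median or of vehicle wells; lower values mean less growth of the strain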
Reported conditions: S. cerevisiae deletion strains, growth OD, locus YDR162C, strain NBP2, active compounds read low
Among all 5,500 compounds or so, about 2,000 (36%) were called active. Not shown: some 18% with an inconclusive outcome. This is one part of the list.
Output: the number by itself.

1) CC[n+]1c(-c2ccccc2)c2cc(N)ccc2c2ccc(N)cc21
0.706
2) NC(=NCCC[C@H](N)C(=O)O)N[N+](=O)[O-]
1.02
3) CCc1cccc(CC)c1N(COC)C(=O)CCl
0.999
4) CCOCN(C(=O)CCl)c1c(C)cccc1CC
1
5) CC(C)(C)NCC(O)c1cc(O)cc(O)c1 (stereo not given)
0.995
6) NC(CSCSCC(N)C(=O)O)C(=O)O (stereo not given)
1.02
7) CO[C@@]1(NC(=O)C(C(=O)O)c2ccc(O)cc2)C(=O)N2C(C(=O)O)=C(CSc3nnnn3C)CO[C@@H]21 (stereo not given in full)
1
8) CC1(C)C(=O)C=C[C@@]2(C)C1CC(=O)[C@]1(C)C2CC[C@@]2(C)[C@H](c3ccoc3)OC(=O)[C@H]3O[C@]321 (stereo not given in full)
0.962
9) COc1ccccc1/C=C\C(=O)O
1.05

Please examine the following record next.
stdin: Recorded normalized growth of CC1(C)C(=O)C=C[C@@]2(C)C1C[C@@H](O)[C@]1(C)C2CC[C@@]2(C)[C@H](c3ccoc3)OC(=O)[C@H]3O[C@]321 (stereo not given in full) , please.
stdout: 0.949
